Tested on: HIV
Assay: Table 1 IC50 of the examples (assay method not given; patent concerns inhibiting HIV replication)
Assay type: cell-based
Settings: Human immunodeficiency virus 1
This listing pairs compounds with measured pIC50.
Friendly reminder that pIC50 comes from taking -log10 of the concentration in mol/L.

Input: # get_value(readout= pIC50, system= HIV) for Cc1cc2c(c(-c3cc(F)c4c(c3C)CCCO4)c1[C@H](OC(C)(C)C)C(=O)O)CCN2C(=O)c1cccc2c1CCCC2 (atropisomer, axis not shown) [Example 59]
Output: 8.22

Input: Provide the documented pIC50 with HIV as the system for Cc1cc(C(=O)N2CCc3c2cc(C)c([C@H](OC(C)(C)C)C(=O)O)c3-c2cc(F)c3c(c2C)CCCO3)ccc1F (atropisomer, axis not shown) [Example 48]
Output: 8.40

Input: What value of pIC50 on HIV does COc1ccc(F)c(C(=O)N2CCc3c2cc(C)c([C@H](OC(C)(C)C)C(=O)O)c3-c2cc(F)c3c(c2C)CCCO3)c1 (atropisomer, axis not shown) [Example 167] have?
Output: 8.15

Input: Request - read-out pIC50 | tested on HIV | compound Cc1cc(Cl)cc(C(=O)N2CCc3c2cc(C)c([C@H](OC(C)(C)C)C(=O)O)c3-c2cc(F)c3c(c2C)CCCO3)c1 (atropisomer, axis not shown) [Example 141]
Output: 8.22

Input: What measured pIC50 is associated with Cc1ccc(-c2c3c(cc(C)c2[C@H](OC(C)(C)C)C(=O)O)N(C(=O)c2ccc(F)cc2Cl)CC3)cc1 [Example 19] on HIV?
Output: 8.30

Input: Provide the documented pIC50 with HIV as the system for Cc1cc2c(c(-c3cc(F)c4c(c3C)CCCO4)c1[C@H](OC(C)(C)C)C(=O)O)CCN2C(=O)c1cccc(Cl)c1 (atropisomer, axis not shown) [Example 52]
Output: 8.70

----------
Item-by-item account of pIC50
Test system: HIV
Test: Table 1 IC50 of the examples (assay method not given; patent concerns inhibiting HIV replication)
Format: cell-based
Conditions: Human immunodeficiency virus 1
Hey, just a heads up that pIC50 is the negative log base 10 of the concentration in molar.

Field: example entries. Status: answers known.
COMPOUND	ASSAYED SYSTEM	pIC50
Cc1cc2c(c(-c3cc(F)c4c(c3C)CCCO4)c1[C@H](OC(C)(C)C)C(=O)O)CCN2C(=O)c1ccc(F)cc1C(F)(F)F (atropisomer, axis not shown) [Example 64]	HIV	8.30
Cc1ccc(-c2c3c(cc(C)c2[C@H](OC(C)(C)C)C(=O)O)N(C(=O)c2ccncc2)CC3)cc1 [Example 40]	HIV	6.55
COc1ccc(C)c(C(=O)N2CCc3c2cc(C)c([C@H](OC(C)(C)C)C(=O)O)c3-c2cc(F)c3c(c2C)CCCO3)c1 (atropisomer, axis not shown) [Example 107]	HIV	8.30

Input: Checklist item: pIC50 tested on HIV, entry COc1cc(Cl)ccc1C(=O)N1CCc2c1cc(C)c([C@H](OC(C)(C)C)C(=O)O)c2-c1cc(F)c2c(c1C)CCCO2 (atropisomer, axis not shown) [Example 72] , value?
Output: 8.15

Input: Missing value: pIC50, HIV, entry Cc1ccc(-c2c3c(cc(C)c2[C@H](OC(C)(C)C)C(=O)O)N(C(=O)c2cccnc2)CC3)cc1 [Example 39] . Fill in?
Output: 7.57

Input: Form entry - test system: HIV; read-out: pIC50; compound: Cc1cc2c(c(-c3cc(F)c4c(c3C)CCCO4)c1[C@H](OC(C)(C)C)C(=O)O)CCN2C(=O)c1cc(C(F)(F)F)ccc1Cl (atropisomer, axis not shown) [Example 154]
Output: 7.28
